Cited source: PubChem BioAssay (NCI)

tested on: SW-620 colon; assay: NCI tumour cell line growth inhibition, 48 h
This section presents compounds with their documented TGI values.

Some entries whose results are on file:
>  <Compound>
CC(C)(C)C1CC[C@H]2c3c([nH]c4ccc(Br)cc34)[C@H]3C(=O)N(c4ccccc4)C(=O)[C@H]3[C@H]2C1 (some centres not stated)

>  <TGI>
> 100 µM

$$$$
>  <Compound>
C=C(NC(=O)C(=C)NC(=O)c1csc(C2=NC3c4csc(n4)C4NC(=O)c5csc(n5)C(C(C)(O)C(C)O)NC(=O)C5CSC(=N5)/C(=C/C)NC(=O)C(C(C)O)NC(=O)c5csc(n5)C3(CC2)NC(=O)C(C)NC(=O)C(=C)NC(=O)C(=C)NC(=O)C(C(C)C)NC2C=Cc3c(C(C)O)cc(nc3C2O)C(=O)OC4C)n1)C(N)=O (configuration not stated)

>  <TGI>
> 100 µM

$$$$
>  <Compound>
CC(C)(C)C1CCC2c3c([nH]c4ccccc34)C3C(=O)N(c4cc(Br)cc(Br)c4)C(=O)C3C2C1 (configuration not stated)

>  <TGI>
> 100 µM

$$$$
>  <Compound>
CN(C)CC1CCC/C(=C\c2ccc(N(C)C)cc2)C1=O (configuration not stated)

>  <TGI>
3.29 µM

$$$$
>  <Compound>
COc1ccc(C2C3=C(NC(=O)C2C#N)c2ccc4ccccc4c2OCC3)cc1 (configuration not stated)

>  <TGI>
> 100 µM

$$$$
>  <Compound>
COCCNCC(O)Cn1c2ccc(Cl)cc2c2cc(Cl)ccc21 (configuration not stated)

>  <TGI>
3.64 µM

$$$$

Here's the next entry for you.
Request: Lab note: need TGI with SW-620 colon for entry `CCOC(=O)NNC(=O)NCCNC(=O)NNC(=O)OCC` , please look it up.
Response: > 100 µM
